target: glucagon receptor (GCGR) (human, UniProt P47871 26-477)
Sequence (P47871 26-477): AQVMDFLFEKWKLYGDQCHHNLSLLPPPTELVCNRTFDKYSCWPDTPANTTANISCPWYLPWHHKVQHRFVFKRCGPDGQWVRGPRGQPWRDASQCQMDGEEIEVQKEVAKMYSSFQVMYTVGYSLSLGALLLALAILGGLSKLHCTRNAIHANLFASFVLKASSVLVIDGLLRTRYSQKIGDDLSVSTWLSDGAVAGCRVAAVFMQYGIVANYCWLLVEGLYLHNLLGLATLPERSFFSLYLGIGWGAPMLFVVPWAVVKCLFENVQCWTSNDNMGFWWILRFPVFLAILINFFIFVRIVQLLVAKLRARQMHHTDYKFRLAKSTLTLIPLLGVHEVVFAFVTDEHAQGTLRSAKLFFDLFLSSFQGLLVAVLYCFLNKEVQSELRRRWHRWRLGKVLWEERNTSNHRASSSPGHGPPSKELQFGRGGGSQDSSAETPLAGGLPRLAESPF
protocol_details: cell-based or functional assay
Starred links: 1 amine or outer side, 2 acyl side, 3 side chain; linkers in the order of their positions; H or OH if unused. Non-standard residues stand in square brackets, D forms with d. Groups on a side chain read outwards from the residue. Primed or numbered codes have the meaning given here. No end group written: not given here. *: point of attachment. Dodecylbenzoate = dodecylbenzoyl lipid group; γGlu = O=C(O)[C@H](CCC(=O)[*:2])N[*:1]; Stearoyl = CCCCCCCCCCCCCCCCCC(=O)*; αMeF = C[C@](N)(Cc1ccccc1)C(=O)O; αMeK = C[C@](N)(CCCCN)C(=O)O; Lauroyl = CCCCCCCCCCCC(=O)*; αMeS = C[C@](N)(CO)C(=O)O; PEG2′ = not defined here; Aib = CC(C)(N)C(=O)O; Ahx = NCCCCCC(=O)O
parameter_measured: Primary assay EC50 (cAMP), Gluc-R, second run (nM)

binder: H[Aib]EGS[αMeF]TSDV[αMeS]S[αMeF]LEGEAA[αMeK]E[αMeF]IA[αMeF]VVK([PEG2′-PEG2′-PEG2′-Stearoyl])GG-NH2 [SEQ ID NO 190]
unit_string: nM
experimental_value: 26
--
binder: H[Aib]EGS[αMeF]TSDV[αMeS]S[αMeF]LEGEAA[αMeK]E[αMeF]IA[αMeF]VVK([PEG2′-Stearoyl])GG-NH2 [SEQ ID NO 188]
unit_string: nM
experimental_value: 28
--
binder: H[Aib]EGS[αMeF]TSDV[αMeS]S[αMeF]LEGEAA[αMeK]E[αMeF]IA[αMeF]VVK([Ahx-Dodecylbenzoate])GG-NH2 [SEQ ID NO 176]
unit_string: nM
experimental_value: 27
--
binder: H[Aib]EGS[αMeF]TSDV[αMeS]S[αMeF]LEGEAA[αMeK]E[αMeF]IA[αMeF]VVK([γGlu-γGlu-Dodecylbenzoate])GG-NH2 [SEQ ID NO 174]
unit_string: nM
experimental_value: 26
--
binder: H[Aib]EGS[αMeF]TSDV[αMeS]S[αMeF]LEGEAA[αMeK]E[αMeF]IA[αMeF]VVK([PEG2′-Dodecylbenzoate])GG-NH2 [SEQ ID NO 179]
unit_string: nM
experimental_value: 27
--
binder: H[Aib]EGS[αMeF]TSDV[αMeS]S[αMeF]LEGEAA[αMeK]E[αMeF]IA[αMeF]VVK([γGlu-γGlu-γGlu-Dodecylbenzoate])GG-NH2 [SEQ ID NO 175]
unit_string: nM
experimental_value: 26
--
binder: H[Aib]EGS[αMeF]TSDV[αMeS]S[αMeF]LEGEAA[αMeK]E[αMeF]IA[αMeF]VVK([γGlu-Dodecylbenzoate])GG-NH2 [SEQ ID NO 173]
unit_string: nM
experimental_value: 27
--
binder: H[Aib]EGS[αMeF]TSDV[αMeS]S[αMeF]LEGEAAK([PEG2′-PEG2′-PEG2′-Stearoyl])E[αMeF]IA[αMeF]VV[αMeK]GG-NH2 [SEQ ID NO 163]
unit_string: nM
experimental_value: 25
--
binder: H[Aib]EGS[αMeF]TSDV[αMeS]S[αMeF]LEGEAA[αMeK]E[αMeF]IA[αMeF]VVK([PEG2′-PEG2′-PEG2′-Dodecylbenzoate])GG-NH2 [SEQ ID NO 181]
unit_string: nM
experimental_value: 25
--
binder: H[Aib]EGS[αMeF]TSDV[αMeS]S[αMeF]LEGEAA[αMeK]E[αMeF]IA[αMeF]VVK([PEG2′-Stearoyl])GG-NH2 [SEQ ID NO 197]
unit_string: nM
experimental_value: 27
--
binder: H[Aib]EGS[αMeF]TSDV[αMeS]S[αMeF]LEGEAA[αMeK]E[αMeF]IA[αMeF]VVK([PEG2′-PEG2′-Stearoyl])GG-NH2 [SEQ ID NO 189]
unit_string: nM
experimental_value: 27
--
binder: H[Aib]EGS[αMeF]TSDV[αMeS]S[αMeF]LEGEAAK([PEG2′-PEG2′-Stearoyl])E[αMeF]IA[αMeF]VV[αMeK]GG-NH2 [SEQ ID NO 153]
unit_string: nM
experimental_value: 27
--
binder: H[Aib]EGS[αMeF]TSDV[αMeS]S[αMeF]LEGEAA[αMeK]E[αMeF]IA[αMeF]VVK([PEG2′-PEG2′-Stearoyl])GG-NH2 [SEQ ID NO 198]
unit_string: nM
experimental_value: 26
--
binder: H[Aib]EGS[αMeF]TSDV[αMeS]S[αMeF]LEGEAAK([PEG2′-PEG2′-PEG2′-Stearoyl])E[αMeF]IA[αMeF]VV[αMeK]GG-NH2 [SEQ ID NO 154]
unit_string: nM
experimental_value: 26
--
binder: H[Aib]EGS[αMeF]TSDV[αMeS]S[αMeF]LEGEAA[αMeK]E[αMeF]IA[αMeF]VVK([PEG2′-PEG2′-Lauroyl])GG-NH2 [SEQ ID NO 171]
unit_string: nM
experimental_value: 27
--
binder: H[Aib]EGS[αMeF]TSDV[αMeS]S[αMeF]LEGEAA[αMeK]E[αMeF]IA[αMeF]VVK([PEG2′-Lauroyl])GG-NH2 [SEQ ID NO 170]
unit_string: nM
experimental_value: 28
--
binder: H[Aib]EGS[αMeF]TSDV[αMeS]S[αMeF]LEGEAA[αMeK]E[αMeF]IA[αMeF]VVK([PEG2′-PEG2′-PEG2′-Lauroyl])GG-NH2 [SEQ ID NO 172]
unit_string: nM
experimental_value: 26
